test: Solubility in first and second solution for disintegration test (Japanese Pharmacopoeia)
Format: physicochemical
test-settings: simulated gastric fluid, thermodynamic from solid; first solution for disintegration test, pH 1.2, room temperature, 12 hours or longer; read-out: Solubility (μg/mL) pH 1.2
measure: solubility (µg/mL)
// units = µg/mL; emit number, no label

Request: Reported solubility for COC1CN(C[C@@H]2O[C@@H]3C4=C(C)[C@@H](OC(=O)[C@H](O)[C@@H](NC(=O)OC(C)(C)C)c5ncccc5F)C[C@@](O)([C@@H](OC(=O)c5ccccc5)[C@H]5[C@@](C)(CC[C@H]6OC[C@]65OC(C)=O)[C@@H]3O2)C4(C)C)C1 : what is it?
Result: 600
